Data provenance is ChEMBL document CHEMBL3433997.

Biological target: Solute carrier family 2, facilitated glucose transporter member 1 (Homo sapiens)
Assay: ST_JUDE_LEISH: Cytotoxicity at 2uM final concentration against transgenic Leishmania Mexicana promastigotes LmGLUT1 that are glucose transport deficient and complemented with the human glucose transporter GLUT1. Activity is measured by DNA content using SYBR green in vitro
Type: functional
Would you mind telling me the reported inhibition of each entry?
State just the number; it will be interpreted in %.

Query block: Can you look up the measured inhibition of CCCCCCN1CCCN(Cc2ccc(C(=O)Nc3ccc(CC)cc3)cc2)CC1 for me?
Result block: 11.4

Query block: Can you look up the measured inhibition of OCC1CCN(Cc2ccc(-c3ccc(-c4nc5cc(F)ccc5[nH]4)cc3)cc2)CC1 for me?
Result block: 6.63

Query block: Can you look up the measured inhibition of CCCCCC(C)N/C(=N/c1ccccc1Br)Nc1ccc(C#N)cc1O (stereo not given) for me?
Result block: 2.35

Query block: Can you look up the measured inhibition of CC(C)Cc1csc(NC(=O)C=Cc2ccco2)c1C(=O)O for me?
Result block: -0.28

Query block: Can you look up the measured inhibition of OC(CN1CCN(C2CCCCC2)CC1)Cn1c2ccccc2c2cc(Br)ccc21 (stereo not given) for me?
Result block: 1.23

Query block: Can you look up the measured inhibition of COCCNCc1ccc(-c2ccc(CNc3ccc4ncccc4c3)cc2)cc1 for me?
Result block: 2

Query block: Can you look up the measured inhibition of Cn1cccc1C(=O)C(=O)Nc1ccc(-c2ccc(-c3nc4cc(F)ccc4[nH]3)cc2)cc1 for me?
Result block: 8.15

Query block: Can you look up the measured inhibition of Cc1ccc2nc(-c3ccc(C(=O)NC4CCN(Cc5ccccc5)CC4)s3)[nH]c2c1 for me?
Result block: -1.39

Query block: Can you look up the measured inhibition of COc1cc(N(C)Cc2cnc3nc(N)nc(N)c3n2)cc(OC)c1OC for me?
Result block: 4.09

Query block: Can you look up the measured inhibition of Cc1ccc(Cc2cccc3nc(N)nc(N)c23)cc1 for me?
Result block: 1.2

---

Target: Hexose transporter 1 (Plasmodium falciparum) (UniProt O97467)
Test: ST_JUDE_LEISH: Cytotoxicity at 2uM final concentration against transgenic Leishmania Mexicana promastigotes LmPfHT that are glucose transport deficient and complemented with the Plasmodium falciparum hexose transporter. Activity is measured by DNA content using SYBR green in vitro
Assay type: functional
Record met whenever inhibition is at 4% or higher; record not met when lower.

Query block: Could you tell me if the measured inhibition of OCCC1CCN(Cc2ccc(-c3ccc(-c4nc5ccccc5[nH]4)cc3)cc2)CC1 reaches 4% or more?
Result block: met

Query block: Could you tell me if the measured inhibition of COc1cc2nccc(Nc3ccc(Oc4ccccc4)cc3)c2cc1OC reaches 4% or more?
Result block: met

Query block: Could you tell me if the measured inhibition of O=C(Nc1n[nH]c2nc(-c3ccco3)c(Br)cc12)c1ccc(CN2CCCC2)cc1 reaches 4% or more?
Result block: not met

Query block: Could you tell me if the measured inhibition of CCN(CC)CCn1c2ccccc2c2ccc(C(=O)Nc3ccc4sc(C)nc4c3)cc21 reaches 4% or more?
Result block: met

Query block: Could you tell me if the measured inhibition of Cc1cc(N2CCOCC2)nc2ccc(NC(=O)c3cccc([N+](=O)[O-])c3)cc12 reaches 4% or more?
Result block: met

Query block: Could you tell me if the measured inhibition of O=C(Nc1ccc(-c2ccccc2)c(OCCN2CCNCC2)c1)c1ccc(-c2ccc(Cl)cc2)cc1 reaches 4% or more?
Result block: met

Query block: Could you tell me if the measured inhibition of Cc1occc1C(=O)Nc1nc(-c2ccccn2)nc2ccsc12 reaches 4% or more?
Result block: met

Query block: Could you tell me if the measured inhibition of Cc1cc(N[C@@H](Cc2ccccc2)C(=O)NCCCOC(C)C)nc(NCCc2ccc(F)cc2)n1 reaches 4% or more?
Result block: not met

Query block: Could you tell me if the measured inhibition of Cc1ccc(Nc2ccnc(Nc3ccc(F)c(Cl)c3)n2)cc1O reaches 4% or more?
Result block: met
